# Species: Ovis aries
# procedure details: Inhibition of phosphatidyl serine liposome-stimulated sheep brain dynamin 1 GTPase activity assessed as reduction orthophosphate release at 300 uM using GTP as substrate after 30 mins by malachite green reagent based colorimetric assay relative to control
Activity calls are given as the source filed them. The rule behind the calls is not given here.
measurement kind: inhibition

compound | data value
CCCCNc1nc(C)cc(NCCN(C)C)n1 | inactive
Cc1cc(NCc2ccccc2)nc(NCCN(C)C)n1 | > 50%
CCC(C)Nc1cc(C)nc(NCCN(C)C)n1 (stereo not given) | inactive
CCCNc1nc(C)cc(NCCN(C)C)n1 | inactive
CCCCNc1cc(C)nc(NCCN(C)C)n1 | > 50%

Requested field: inhibition. Item: `Cc1cc(NCCN(C)C)nc(NCc2ccccc2)n1`
> 50%

Requested field: inhibition. Item: CCC(C)Nc1nc(C)cc(NCCN(C)C)n1 (stereo not given)
> 50%

Requested field: inhibition. Item: `CCCNc1cc(C)nc(NCCN(C)C)n1`
inactive

Requested field: inhibition. Item: `CCNc1nc(C)cc(NCCN(C)C)n1`
inactive

Requested field: inhibition. Item: `CCNc1cc(C)nc(NCCN(C)C)n1`
inactive

----------
Each entry below lists one item and its recorded IC50 value.
# procedure details: Inhibition of phosphatidyl serine liposome-stimulated sheep brain dynamin 1 GTPase activity assessed as reduction orthophosphate release using GTP as substrate after 30 mins by malachite green reagent based colorimetric assay
# Set-up: species or system Ovis aries
# experimental parameters: read-out: IC50
# value in µM; strip the unit string

substance smiles | units | IC50
CCCCCCCCCCCCNc1cc(NCCN(C)C)ncn1 | µM | 7.7

Requested field: IC50. Item: `CCCCCCCCCCCCNc1cc(C)nc(NCCN(C)C)n1`
1.1

Requested field: IC50. Item: `CCCCCCCCCCCCNc1cc(C)nc(Cl)n1`
32.5

Requested field: IC50. Item: `CCCCCCCCCCCCNc1nc(C)cc(NCCN)n1`
18.6

Requested field: IC50. Item: `CCCCCCCCCCNc1cc(C)nc(NCCN(C)C)n1`
3.8

----------
# procedure details: Inhibition of phosphatidyl serine liposome-stimulated sheep brain dynamin 1 GTPase activity assessed as reduction orthophosphate release using GTP as substrate after 30 mins by malachite green reagent based colorimetric assay
# Design: species or system Ovis aries
# experimental parameters: read-out: IC50
Each entry below lists one item and its recorded pIC50 value.
Keep it numeric: pIC50 is minus log10 of the concentration in mol/L.

// worked examples, pIC50 included
substance smiles | data value
CCCCCCCCCCCCNc1cc(C)nc(NCCCN(C)C)n1 | 4.31
CCCCCCCCCCNc1nccc(NCCN(C)C)n1 | 4.35
CCCCCCCCCCCCCCCCCCNc1cc(C)nc(NCCN(C)C)n1 | 5.08
Cc1cc(NCCN(C)C)nc(NC2CCCCC2)n1 | 5.42
CCCCCCCCCCCCNc1ccnc(NCCN(C)C)n1 | 5.74

Requested field: pIC50. Item: `CCCCCCCCCCN(CCCCCCCCCC)c1cc(C)nc(NCCN(C)C)n1`
5.12

----------
# measured target: 5-hydroxytryptamine receptor 2B (Homo sapiens, UniProt P41595)
# Sequence (P41595 whole entry): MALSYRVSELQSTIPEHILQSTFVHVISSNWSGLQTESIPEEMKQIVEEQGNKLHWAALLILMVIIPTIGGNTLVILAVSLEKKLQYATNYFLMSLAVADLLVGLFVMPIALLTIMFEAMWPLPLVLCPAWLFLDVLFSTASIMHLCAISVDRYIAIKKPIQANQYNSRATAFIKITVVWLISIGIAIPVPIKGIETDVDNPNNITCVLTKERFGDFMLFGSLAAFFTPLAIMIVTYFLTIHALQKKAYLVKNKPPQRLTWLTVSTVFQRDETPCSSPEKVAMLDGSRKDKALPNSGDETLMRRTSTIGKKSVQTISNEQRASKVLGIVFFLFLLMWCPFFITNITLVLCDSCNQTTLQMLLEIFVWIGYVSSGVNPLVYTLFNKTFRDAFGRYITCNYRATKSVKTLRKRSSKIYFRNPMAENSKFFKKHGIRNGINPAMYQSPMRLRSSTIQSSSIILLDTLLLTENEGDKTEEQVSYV
# procedure details: Displacement of [125I](+/-)DOI from human recombinant 5-HT2B receptor expressed in CHO cells after 60 mins by scintillation counting
measurement kind: pKi
Keep it numeric: pKi is minus log10 of the concentration in mol/L.

Under 5-hydroxytryptamine receptor 2B (Homo sapiens, UniProt P41595): pKi value of COc1cc(CC(C)N)c(OC)cc1I (racemic) ?
8.80

----------
Each entry below lists one item and its recorded pIC50 value.
# procedure details: Inhibition of phosphatidyl serine liposome-stimulated sheep brain dynamin 1 GTPase activity assessed as reduction orthophosphate release using GTP as substrate after 30 mins by malachite green reagent based colorimetric assay
# Parameters: species or system Ovis aries
# experimental parameters: read-out: IC50
Keep it numeric: pIC50 is minus log10 of the concentration in mol/L.

substance smiles | measurement kind | data value
CCCCCCCCCCCCNc1nccc(NCCN(C)C)n1 | pIC50 | 5.70

Requested field: pIC50. Item: `CCCCCCCCCCNc1cc(NCCN(C)C)ncn1`
5.29

Requested field: pIC50. Item: `CCCCCCCCCCCCCCNc1cc(C)nc(NCCN(C)C)n1`
5.49

----------
# procedure details: Inhibition of phosphatidyl serine liposome-stimulated sheep brain dynamin 1 GTPase activity assessed as reduction orthophosphate release using GTP as substrate after 30 mins by malachite green reagent based colorimetric assay
# Design: species or system Ovis aries
# experimental parameters: read-out: IC50
Each entry below lists one item and its recorded IC50 value.
# value in µM; strip the unit string

substance smiles | data value
CCCCCCCCCCN(CCCCCCCCCC)c1nc(C)cc(CCN(C)C)n1 | 5.2
CCCCCCCCCCCCNc1cc(C)nc(NCCC)n1 | 61.8
Cc1cc(NC2CCCCC2)nc(NCCN(C)C)n1 | 20.6

Requested field: IC50. Item: `CCCCCCCCNc1nc(C)cc(NCCN(C)C)n1`
2.5

Requested field: IC50. Item: `CCCCCCCCCCCCNc1nc(C)cc(NCCC)n1`
4.7

Requested field: IC50. Item: `CCCN(CC1CC1)c1nc(C)cc(NCCN(C)C)n1`
59.8

----------
# procedure details: Inhibition of phosphatidyl serine liposome-stimulated sheep brain dynamin 1 GTPase activity assessed as reduction orthophosphate release using GTP as substrate after 30 mins by malachite green reagent based colorimetric assay
# Design: species or system Ovis aries
# experimental parameters: read-out: IC50
Each entry below lists one item and its recorded IC50 value.

// worked examples, IC50 included
compound | data value
CCC(C)Nc1nc(C)cc(NCCN(C)C)n1 (stereo not given) | > 50 µM
CCCCCCCCCCCCCCCCCCNc1nc(C)cc(NCCN(C)C)n1 | 4.4 µM
CCCCCCCCCCCCNc1cc(C)nc(NCCN)n1 | 5.3 µM
CCCCCCNc1nc(C)cc(NCCN(C)C)n1 | 5.8 µM

Requested field: IC50. Item: `CCCCCCCCCCNc1nc(C)cc(NCCN(C)C)n1`
9.3 µM

Requested field: IC50. Item: `CCCCCCCCCCCCNc1nc(C)cc(NCCN(C)C)n1`
1.4 µM

Requested field: IC50. Item: `CCCCCCCCCCCCNc1cc(C)nc(N(C)C)n1`
14 µM

Requested field: IC50. Item: `CCCCCCCCCCCCNc1nc(C)cc(NCCO)n1`
5.5 µM

Requested field: IC50. Item: `CCCCCCNc1cc(C)nc(NCCN(C)C)n1`
10.6 µM

Requested field: IC50. Item: `CCCCCCCCCCCCNc1cc(C)nc(NCCO)n1`
4.6 µM

----------
# procedure details: Inhibition of phosphatidyl serine liposome-stimulated sheep brain dynamin 1 GTPase activity assessed as reduction orthophosphate release using GTP as substrate after 30 mins by malachite green reagent based colorimetric assay
# Parameters: species or system Ovis aries
# experimental parameters: read-out: IC50
measurement kind: pIC50
Keep it numeric: pIC50 is minus log10 of the concentration in mol/L.

// worked examples, pIC50 included
substance smiles | pIC50
CCCCCCCCCCCCNc1nc(C)cc(NCCCN(C)C)n1 | 4.42
CCCCCCCCNc1cc(C)nc(NCCN(C)C)n1 | 5.80
CCCN(CC1CC1)c1cc(C)nc(NCCN(C)C)n1 | 4.28
CCCCCCCCCCCCNc1nc(C)cc(N(C)C)n1 | 5.48

We now examine a further molecule.
Requested field: pIC50. Item: `CCCCCCCCCCNc1ccnc(NCCN(C)C)n1`
5.54

----------
# procedure details: Inhibition of phosphatidyl serine liposome-stimulated sheep brain dynamin 1 GTPase activity assessed as reduction orthophosphate release using GTP as substrate after 30 mins by malachite green reagent based colorimetric assay
# Set-up: species or system Ovis aries
# experimental parameters: read-out: IC50
pIC50: −log10 of the molar value.
measurement kind: pIC50

// worked examples, pIC50 included
substance smiles | data value
CCCCNc1cc(C)nc(NCCN(C)C)n1 | < 4.30
CCCCCCCCCCCCNc1nc(C)cc(Cl)n1 | < 3.52
Cc1cc(NCc2ccccc2)nc(NCCN(C)C)n1 | < 4.30

Requested field: pIC50. Item: `Cc1cc(NCCN(C)C)nc(NCc2ccccc2)n1`
< 4.30
